assaySystem: Cannabinoid receptor 1 (Homo sapiens, UniProt P21554)
Sequence (P21554 whole entry): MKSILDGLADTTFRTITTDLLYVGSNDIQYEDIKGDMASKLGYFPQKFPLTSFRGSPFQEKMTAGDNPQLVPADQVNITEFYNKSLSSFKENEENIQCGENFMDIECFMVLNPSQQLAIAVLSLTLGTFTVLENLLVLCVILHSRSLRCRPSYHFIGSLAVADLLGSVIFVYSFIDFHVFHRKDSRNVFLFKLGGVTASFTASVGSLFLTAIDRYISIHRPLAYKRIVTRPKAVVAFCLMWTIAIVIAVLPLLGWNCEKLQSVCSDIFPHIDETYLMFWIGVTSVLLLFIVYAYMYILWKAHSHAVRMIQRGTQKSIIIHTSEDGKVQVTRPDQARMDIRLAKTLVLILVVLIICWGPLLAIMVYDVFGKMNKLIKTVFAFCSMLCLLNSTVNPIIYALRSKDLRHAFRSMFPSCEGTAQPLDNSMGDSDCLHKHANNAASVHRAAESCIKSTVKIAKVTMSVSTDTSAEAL
recordedEndpoint: Ki (nM)
Give the value, in units of nM, as a plain number.

Some compounds with recorded Ki:
{"compound": "CCCCCn1cc(C(=O)NC2C3CC4CC(C3)CC2C4)c(=O)c2ccccc21 (centres undefined)", "assaySystem": "Cannabinoid receptor 1 (Homo sapiens, UniProt P21554)", "recordedEndpoint": "Ki", "valueMeasured": 1920}
{"compound": "CCCCCn1cc(C(=O)N[C@H](C)c2ccccc2)c(=O)c2ccccc21", "assaySystem": "Cannabinoid receptor 1 (Homo sapiens, UniProt P21554)", "recordedEndpoint": "Ki", "valueMeasured": 1150}
{"compound": "CCCCCn1cc(C(=O)NC2CCCc3ccccc32)c(=O)c2ccccc21 (racemic)", "assaySystem": "Cannabinoid receptor 1 (Homo sapiens, UniProt P21554)", "recordedEndpoint": "Ki", "valueMeasured": 1050}

Now let's try a different one.
Exercise: Fill in: Ki on Cannabinoid receptor 1 (Homo sapiens, UniProt P21554), entry `CCCCCn1cc(C(=O)Nc2cccc3ccccc23)c(=O)c2ccccc21`
Solution: 4080

Each recorded value in this set is attributed to ChEMBL document CHEMBL1148594.
